Reported PET hydrolysis product formed values for a set of sequences
# Assay info: PET hydrolysis product formed (TPA+MHET+BHET, UV-Vis) per mg enzyme (mmol/mg enzyme); higher = more PET depolymerisation activity; extreme values may be limits of the assay
# Condition parameters: PET substrate: aFilm; 70 °C; pH 6.5; 24 h
// response body must contain only the number

SNPYQRGPNPTRSALTADGPFSVATYTVSRLSVSGFGGGVIYYPTGTSLTFGGIAMSPGYTADASSLAWLGRRLASHGFVVLVINTNSRFDGPDSRASQLSAALNYLRTSDPSAVRARLDANRLAVAGHSMGGGATLRIAEQNPSLKAAIPLTPWHTQKTFNTSVPVLIVGAEADTVAPVSQHAIPFYQNLPSTTPKVYVELCNASHIAPNSNNAAISVYTISWMKLWVDNDTRYRQFLCNVNDPALCDFRTNNRHCQ [LCC-ICCG DAQI] ... 0.205
ADNPYQRGPDPTNASIEAATGPFAVGTQPIVGASGFGGGQIYYPTDTSQTYGAVVIVPGFISVWAQLAWLGPRLASQGFVVIGIETSTITDLPDPRGDQALAALDWATTRSPVRSRIDRTRLAAAGWSMGGGGLRRAACQRPSLKAIVGMAPWNTEKNWSCVTVPTLFFGGSSDAVASPNDHAKPFYNSITRAEKDYIELCNADHFFPTSANTTMAKYFISWLKRWVDNDTRYTQFLCPGPSTGLFAPVCASMNTCPF [CaPETaseM9] ... 0

Now examine the next entry.
Would you mind telling me what PET hydrolysis product formed value was observed for QTNPYARGPDPTAASLEASAGPFTVRSFTVSRPSGYGAGTVYYPTNAGGTVGAIAIVPGYTARQSSIKWWGPRLASHGFVVITIDTNSTLDQPESRSSQQMAALEQVASLNGTSSSPIYGKVDTARMGVMGWSMGGGGSLISACNNPSLKAAVVQAPWHSSTNFSCVTVPTLIFACENDSIAPVNSSALPIYDSMSENAKQFLEICGGSHSCANTGNSDQALIGKKGVAWMKRFMDNDTRYSTFACENPNSTRVCDFRTANCS [Z1-PETase] ?
0
